# Study System: rat CB1 receptor (Rattus norvegicus, UniProt P20272)
# Construct: membrane preparations from rat brain; from tissue; host or cells: rat brain membranes
# Sequence (P20272 whole entry): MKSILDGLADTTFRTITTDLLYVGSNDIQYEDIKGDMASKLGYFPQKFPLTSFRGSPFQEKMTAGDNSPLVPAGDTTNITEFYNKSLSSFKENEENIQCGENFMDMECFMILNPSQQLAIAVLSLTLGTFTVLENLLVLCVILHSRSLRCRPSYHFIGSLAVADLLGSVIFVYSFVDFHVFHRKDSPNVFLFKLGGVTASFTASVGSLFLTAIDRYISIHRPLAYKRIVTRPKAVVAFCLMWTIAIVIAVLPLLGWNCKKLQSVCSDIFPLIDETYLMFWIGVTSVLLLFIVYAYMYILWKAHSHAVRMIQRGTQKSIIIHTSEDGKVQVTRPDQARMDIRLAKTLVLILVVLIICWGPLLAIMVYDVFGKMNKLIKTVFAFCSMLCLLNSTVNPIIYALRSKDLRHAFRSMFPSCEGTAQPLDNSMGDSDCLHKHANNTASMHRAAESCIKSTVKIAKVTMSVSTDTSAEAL
# Test Details: Radioligand competition binding, [3H]CP-55,940, rat brain membranes
# Run Conditions: read-out: Ki rCB1
Grouping key: Ki. Bins: L = under 300 nM, M = from 300 nM up to 400 nM, H = 400 nM and over

• O=c1oc2cc(C3(CCCCCBr)CCCC3)cc(O)c2c2cc(O)ccc12 = M

Task: // return the class label for CC(C)N(C(=O)c1ccc(O)cc1-c1c(O)cc(C2(CCCCBr)CCCC2)cc1O)C(C)C [Compound 23a]
Result: H

Task: // return the class label for CC(C)N(C(=O)c1ccc(O)cc1-c1c(O)cc(C2(CCCBr)CCCC2)cc1O)C(C)C [Compound 23c]
Result: L

Task: // return the class label for CC(C)N(C(=O)c1ccc(O)cc1-c1c(O)cc(C2(CCCCCBr)CCCC2)cc1O)C(C)C [Compound 23b]
Result: H

Task: // return the class label for N#CCCCC1(c2cc(O)c3c(c2)oc(=O)c2ccc(O)cc23)CCCC1
Result: L

Task: // return the class label for CCCCCCC1(c2cc(O)c(-c3cc(O)ccc3C(=O)N(C(C)C)C(C)C)c(O)c2)CCCC1 [Compound 23d]
Result: M
